Ki values, listed per item
Molecular target: D(4) dopamine receptor (Rattus norvegicus, UniProt P30729)
Sequence (P30729 whole entry): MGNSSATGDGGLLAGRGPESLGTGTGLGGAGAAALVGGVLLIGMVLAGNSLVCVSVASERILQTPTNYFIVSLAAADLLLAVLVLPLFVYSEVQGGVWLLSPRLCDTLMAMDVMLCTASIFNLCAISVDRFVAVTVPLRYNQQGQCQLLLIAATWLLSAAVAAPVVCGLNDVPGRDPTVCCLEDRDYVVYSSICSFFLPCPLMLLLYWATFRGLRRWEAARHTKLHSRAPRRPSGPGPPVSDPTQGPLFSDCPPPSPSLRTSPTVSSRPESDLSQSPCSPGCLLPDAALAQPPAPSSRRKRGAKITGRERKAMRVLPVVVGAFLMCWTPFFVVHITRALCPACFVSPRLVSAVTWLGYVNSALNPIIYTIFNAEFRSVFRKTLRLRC
endpoint name: Ki

* Fc1ccc(OCCCN2CCN(c3ccc(Cl)cc3)CC2)cc1 | 6.9 nM
* Fc1ccc(SCCCN2CCN(c3ccc(Cl)cc3)CC2)cc1 | 8.7 nM
* Fc1ccc(OCCCN2CCC(c3ccc(Cl)cc3)CC2)cc1 | 9.5 nM
* Fc1ccc(OCCCN2CCN(c3ccccc3)CC2)cc1 | 7.4 nM
* Fc1ccc(CCCCN2CCN(c3ccc(Cl)cc3)CC2)cc1 | 7.8 nM

====

target: 5-hydroxytryptamine receptor 1A (Homo sapiens); experiment: Displacement of [3H]8-OH-DPAT from human 5HT1A receptor by liquid scintillation counting
Sequence (P08908 whole entry): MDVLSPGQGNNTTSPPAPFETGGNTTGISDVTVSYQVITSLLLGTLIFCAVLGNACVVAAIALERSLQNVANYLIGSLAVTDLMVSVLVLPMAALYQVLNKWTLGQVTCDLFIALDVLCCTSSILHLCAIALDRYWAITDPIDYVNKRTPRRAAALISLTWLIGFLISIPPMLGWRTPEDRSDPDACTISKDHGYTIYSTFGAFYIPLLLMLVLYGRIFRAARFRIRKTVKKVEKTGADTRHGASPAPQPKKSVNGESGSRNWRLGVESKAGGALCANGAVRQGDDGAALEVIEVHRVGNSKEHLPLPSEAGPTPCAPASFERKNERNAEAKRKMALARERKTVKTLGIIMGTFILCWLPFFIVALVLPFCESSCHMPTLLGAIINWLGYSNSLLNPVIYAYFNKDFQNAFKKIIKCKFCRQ
Ki values, listed per item
endpoint name: Ki (nM)

• Fc1ccc(SCCCN2CCC(c3ccc(Cl)cc3)CC2)cc1 = 454
• Fc1ccc(OCCCN2CCN(c3ncccn3)CC2)cc1 = 23
• Fc1ccc(SCCCN2CCN(c3ccc(C(F)(F)F)cc3)CC2)cc1 = 1080
• c1ccc(OCCCN2CCN(c3ccccc3)CC2)cc1 = 25
